Target: Beta-secretase 1 (Homo sapiens, UniProt P56817)
Sequence (P56817 whole entry): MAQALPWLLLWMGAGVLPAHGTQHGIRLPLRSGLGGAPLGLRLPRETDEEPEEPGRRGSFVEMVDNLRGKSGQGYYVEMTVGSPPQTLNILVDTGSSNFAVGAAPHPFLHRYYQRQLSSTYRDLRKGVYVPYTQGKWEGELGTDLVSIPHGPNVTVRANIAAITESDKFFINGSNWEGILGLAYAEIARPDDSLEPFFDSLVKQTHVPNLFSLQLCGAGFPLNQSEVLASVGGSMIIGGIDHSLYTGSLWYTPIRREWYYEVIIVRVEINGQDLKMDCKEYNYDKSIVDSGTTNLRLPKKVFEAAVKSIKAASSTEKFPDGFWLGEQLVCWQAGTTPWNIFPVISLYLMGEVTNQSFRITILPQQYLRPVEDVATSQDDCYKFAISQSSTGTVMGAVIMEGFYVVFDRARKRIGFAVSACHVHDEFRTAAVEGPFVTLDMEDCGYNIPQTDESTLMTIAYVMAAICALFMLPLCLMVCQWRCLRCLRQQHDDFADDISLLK
Test: Inhibition of BACE1 using peptide substrate Rh-EVNLDAEFKQuencher by fluorescence resonance energy transfer (FRET) assay
pIC50: −log10 of the molar value.
Label rule, in plain words: pIC50 of 5 and up is 1, under 5 is 0.

{"columns": ["LINE NOTATION", "TARGET SYSTEM", "LABEL"],
 "data": [
  ["N#Cc1c(-c2ccccc2)cc(-c2ccccc2)nc1SCC(=O)Nc1cccc([N+](=O)[O-])c1", "Beta-secretase 1 (Homo sapiens, UniProt P56817)", 0],
  ["O=C(Nc1ncc(Cc2cccc(Cl)c2Cl)s1)c1ccc(CSc2nnc(-c3ccncc3)n2-c2ccccc2)cc1", "Beta-secretase 1 (Homo sapiens, UniProt P56817)", 0],
  ["N#Cc1c(-c2ccc(F)cc2)cc(-c2ccccc2)nc1SCC(=O)NC12CC3CC(CC(C3)C1)C2", "Beta-secretase 1 (Homo sapiens, UniProt P56817)", 0],
  ["N#Cc1c(NC(=O)COC(=O)CSc2nc(-c3ccccc3)cc(-c3ccccc3)n2)sc2c1CCCC2", "Beta-secretase 1 (Homo sapiens, UniProt P56817)", 0],
  ["Cc1nc(NC(=NC(=O)Nc2ccccc2)NC(=O)Nc2ccccc2)nc2ccccc12", "Beta-secretase 1 (Homo sapiens, UniProt P56817)", 1]
]}

Taken from ChEMBL document CHEMBL1782041.
